All values here come from paper PMC3949622.

Test system: KB3-1 cells
RUN_DESCRIPTION: MTT cytotoxicity assay, KB3-1
Type: cell-based, human
MEASUREMENT_CONTEXT: continuous exposure for four days, means of at least two determinations ± standard deviation, read-out: IC50, KB3-1 wt.
READOUT_KIND: IC50 (µM)
# number only, unit µM dropped from output

Return reported IC50. Input compound: CN(C)CCCc1cc2cc(c1)CNC(=O)c1coc(n1)-c1coc(n1)-c1cccc(n1)-c1nc(co1)-c1nc(co1)C(=O)NC2 [Compound 22]
0.22

Return reported IC50. Input compound: CN(C)c1cc2cc(c1)CNC(=O)c1coc(n1)-c1coc(n1)-c1cccc(n1)-c1nc(co1)-c1nc(co1)C(=O)NC2 [Compound 19]
0.03

Return reported IC50. Input compound: CN(C)CCc1oc2nc1C(=O)NCc1cccc(c1)CNC(=O)c1coc(n1)-c1coc(n1)-c1cccc(n1)-c1nc-2co1 [Compound 36]
0.14
